# tested_on: Aromatase (Homo sapiens)
# Sequence (P11511 whole entry): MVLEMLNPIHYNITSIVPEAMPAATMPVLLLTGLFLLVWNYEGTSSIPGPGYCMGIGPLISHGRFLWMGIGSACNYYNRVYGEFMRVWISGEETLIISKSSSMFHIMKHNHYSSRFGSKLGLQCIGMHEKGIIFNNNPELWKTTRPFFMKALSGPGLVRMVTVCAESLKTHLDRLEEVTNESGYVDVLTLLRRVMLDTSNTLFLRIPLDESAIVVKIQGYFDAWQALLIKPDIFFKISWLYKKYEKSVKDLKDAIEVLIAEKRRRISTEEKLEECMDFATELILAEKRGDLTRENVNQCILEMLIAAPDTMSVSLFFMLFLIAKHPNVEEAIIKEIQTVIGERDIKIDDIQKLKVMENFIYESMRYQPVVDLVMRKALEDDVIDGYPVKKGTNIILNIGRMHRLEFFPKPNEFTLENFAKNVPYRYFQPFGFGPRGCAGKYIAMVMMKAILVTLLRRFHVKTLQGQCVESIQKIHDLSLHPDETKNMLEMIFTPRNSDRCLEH
# protocol: Inhibition of aromatase (unknown origin)
pKi: −log10 of the molar value.
experimental_readout: pKi

smiles_notation	tested_on	experimental_readout	test_result
C[C@]12CC[C@H]3[C@@H](CCC4=CC(=O)CC[C@@]43[C@@H]3CN3)[C@@H]1CC[C@@H]2O	Aromatase (Homo sapiens)	pKi	8.47
C[C@]12CCC(=O)C(O)=C1C(=O)C[C@@H]1[C@@H]2CC[C@]2(C)C(=O)CC[C@@H]12	Aromatase (Homo sapiens)	pKi	7.38
CC1(C)C[C@@]2(C)C(=CC1=O)C(=O)C[C@@H]1[C@@H]2CC[C@]2(C)C(=O)CC[C@@H]12	Aromatase (Homo sapiens)	pKi	7.60
C[C@]12CC[C@H]3[C@@H](CCC4=CC(=O)CC[C@@]43[C@H]3CN3)[C@@H]1CCC2=O	Aromatase (Homo sapiens)	pKi	8.47
